Where these numbers come from: ChEMBL document CHEMBL1146061

- System: Cathepsin K (Homo sapiens)
- Sequence (P43235 whole entry): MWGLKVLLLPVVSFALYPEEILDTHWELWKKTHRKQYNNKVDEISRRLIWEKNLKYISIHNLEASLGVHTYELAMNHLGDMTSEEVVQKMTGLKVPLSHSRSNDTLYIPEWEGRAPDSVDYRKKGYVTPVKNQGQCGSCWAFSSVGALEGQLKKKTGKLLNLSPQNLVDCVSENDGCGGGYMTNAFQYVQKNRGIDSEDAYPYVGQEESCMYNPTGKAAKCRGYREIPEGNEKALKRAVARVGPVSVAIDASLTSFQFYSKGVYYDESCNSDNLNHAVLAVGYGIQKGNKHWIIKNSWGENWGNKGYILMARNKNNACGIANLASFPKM
- Experimental Protocol: Inhibition of recombinant human cathepsin K by fluorescence assay
pIC50: −log10 of the molar value.
Reported Metric: pIC50

1 = CCCC[C@H](NC(=O)O[C@@H]1C(=O)N(C(=O)Nc2ccccc2)CC1(C)C)C(=O)C(=O)N[C@H](C)c1ccccc1
2 = CCCC[C@H](NC(=O)O[C@@H]1C(=O)N(C(=O)c2cccnc2)CC1(C)C)C(=O)C(=O)N[C@H](C)c1ccccc1
3 = CCCC[C@H](NC(=O)O[C@@H]1C(=O)N(C(=O)c2ccc3[nH]ccc3c2)CC1(C)C)C(=O)C(=O)N[C@H](C)c1ccccc1
Rank descending by pIC50: all 3 molecules from above. Use the labels to give the ranking in the order requested. 3, 1, 2

###

- Experimental Protocol: Solubility in fasted state-simulated intestinal fluid at pH 6.8
- Assay type: physicochemical
Reported Metric: solubility (µg/mL)

The cases that follow already have their solubility on record.
- Line Notation: "CCCC[C@H](NC(=O)O[C@@H]1C(=O)N(C(=O)c2nc3ccccc3s2)CC1(C)C)C(=O)C(=O)Nc1ccn[nH]1"
  Reported Metric: "solubility"
  Unit String: "µg/mL"
  Numeric Readout: 160
- Line Notation: "CCCC[C@H](NC(=O)O[C@@H]1C(=O)N(C(=O)c2ccno2)CC1(C)C)C(=O)C(=O)N[C@H](C)c1ccccc1"
  Reported Metric: "solubility"
  Unit String: "µg/mL"
  Numeric Readout: 68
- Line Notation: "CCCC[C@H](NC(=O)O[C@@H]1C(=O)N(C(=O)Cc2ccccc2)CC1(C)C)C(=O)C(=O)N[C@H](C)c1ccccc1"
  Reported Metric: "solubility"
  Unit String: "µg/mL"
  Numeric Readout: 68

I = CCCC[C@H](NC(=O)O[C@@H]1C(=O)N(C(=O)NCc2ccccc2)CC1(C)C)C(=O)C(=O)N[C@H](C)c1ccccc1
II = CCCC[C@H](NC(=O)O[C@@H]1C(=O)N(C(=O)Nc2c(C)noc2C)CC1(C)C)C(=O)C(=O)N[C@H](C)c1ccccc1
III = CCCC[C@H](NC(=O)O[C@@H]1C(=O)N(C(=O)c2cccnc2)CC1(C)C)C(=O)C(=O)N[C@H](C)c1ccccc1
IV = CCCC[C@H](NC(=O)O[C@@H]1C(=O)N(C(=O)Nc2ccc(C(F)(F)F)cc2)CC1(C)C)C(=O)C(=O)Nc1cc[nH]n1
Hi! Can you put these in order of solubility, lowest number first? Provide the ranking by listing each label in its place in the requested order. I, III, IV, II
(I: 53 µg/mL, III: 85 µg/mL, IV: 140 µg/mL, II: 320 µg/mL)

###

- Experimental Protocol: Volume of distribution in Han Wistar rat
- Type: ADME, organism-based
- Condition Label: in vivo, read-out: Vss
Reported Metric: Vd (L/kg)

Recorded results for 6 molecules are shown here.
- Line Notation: "CCCC[C@H](NC(=O)O[C@@H]1C(=O)N(C(=O)NCc2ccccc2)CC1(C)C)C(=O)C(=O)N[C@H](C)c1ccccc1"
  Vd (L/kg): 1.4
- Line Notation: "CCCC[C@H](NC(=O)O[C@@H]1C(=O)N(C(=O)c2nc3ccccc3s2)CC1(C)C)C(=O)C(=O)Nc1ccn[nH]1"
  Vd (L/kg): 2.2
- Line Notation: "CCCC[C@H](NC(=O)O[C@@H]1C(=O)N(C(=O)Nc2ccc(C(F)(F)F)cc2)CC1(C)C)C(=O)C(=O)Nc1cc[nH]n1"
  Vd (L/kg): 2.6
- Line Notation: "CCCC[C@H](NC(=O)O[C@@H]1C(=O)N(C(=O)c2cccnc2)CC1(C)C)C(=O)C(=O)N[C@H](C)c1ccccc1"
  Vd (L/kg): 0.55
- Line Notation: "CCCC[C@H](NC(=O)O[C@@H]1C(=O)N(S(=O)(=O)c2ccccc2)CC1(C)C)C(=O)C(=O)N[C@H](C)c1ccccc1"
  Vd (L/kg): 2.1
- Line Notation: "CCCC[C@H](NC(=O)O[C@@H]1C(=O)N(C(=O)Nc2c(C)noc2C)CC1(C)C)C(=O)C(=O)N[C@H](C)c1ccccc1"
  Vd (L/kg): 1.4

P = CCCC[C@H](NC(=O)O[C@@H]1C(=O)N(C(=O)Cc2ccccc2)CC1(C)C)C(=O)C(=O)N[C@H](C)c1ccccc1
Q = CCCC[C@H](NC(=O)O[C@@H]1C(=O)N(C(=O)c2ccno2)CC1(C)C)C(=O)C(=O)N[C@H](C)c1ccccc1
R = CCCC[C@H](NC(=O)O[C@@H]1C(=O)N(C(=O)c2nnc(C(F)(F)F)s2)CC1(C)C)C(=O)C(=O)Nc1cc[nH]n1
# ascending order, key=Vd Respond with an ordered listing of the labels, as requested. Q, P, R
